GI50 overview
- study_system: ABL T315I BAF3 cells (Homo sapiens, UniProt P00519, T315I, cells depend on it)
- Construct: ABL T315I BAF3; fused on or other part: P11274 (Breakpoint cluster region protein)
- measurement_notes: 96-well XTT cell survival assay, BaF3 ABL T315I
- Format: cell-based
- measurement_context: 72 hours, read-out: CELL BIO ABL T315I BAF3 XTT (IC50)
measure_name: GI50

>>> recorded_value("CN(C)C(=O)C(O)c1cc(-c2cnc3[nH]cc(-c4ccccc4F)c3c2Cl)cnc1N (centres unmarked)")
"0.01 to 0.1 µM"
>>> recorded_value("CN(C)C1CCN(C(=O)c2cc(-c3cnc4[nH]cc(-c5cccc(F)c5)c4c3Cl)cnc2N)C1 (centres unmarked)")
"0.1 to 1 µM"
>>> recorded_value("COc1ccccc1-c1c[nH]c2ncc(-c3cnc(N)c(C(=O)N(C)C)c3)c(Cl)c12")
"< 0.01 µM"
>>> recorded_value("COc1cc(Cl)ccc1-c1c[nH]c2ncc(-c3cnc(N)c(C(=O)N(C)C)c3)c(Cl)c12")
"0.01 to 0.1 µM"
>>> recorded_value("COc1ccccc1-c1c[nH]c2ncc(-c3cncc(C(O)C(=O)N(C)C)c3)c(SC)c12 (centres unmarked)")
"0.01 to 0.1 µM"
>>> recorded_value("CN(C)C(=O)c1cc(-c2cnc3[nH]cc(-c4cc[nH]n4)c3c2Cl)cnc1N")
"> 1 µM"
>>> recorded_value("CNC(=O)c1cncc(-c2cnc3[nH]cc(-c4ccccc4F)c3c2Cl)c1")
"> 1 µM"
>>> recorded_value("CN(C)C(=O)C(O)c1cncc(-c2cnc3[nH]cc(-c4ccccc4Cl)c3c2Cl)c1 (centres unmarked)")
"0.1 to 1 µM"
>>> recorded_value("CN(C)C(=O)C(O)c1cncc(-c2cnc3[nH]cc(-c4ccccc4)c3c2Cl)c1 (centres unmarked)")
"0.1 to 1 µM"
>>> recorded_value("CN(C)C(=O)c1cncc(-c2cnc3[nH]nc(-c4ccccc4)c3c2Cl)c1")
"> 1 µM"
>>> recorded_value("COc1ccc(F)cc1-c1c[nH]c2ncc(-c3cncc(C(=O)N(C)C)c3)c(Cl)c12")
"0.01 to 0.1 µM"
